- System: Wolbachia pipientis
- Experiment notes: Anti-Wolbachia Cell-Based Screen
- Format: functional
- Design: scale not given: in the data most compounds retested in dose-response had high values
- Measurement parameters: 5 µM
Among all 48,000 compounds or so, about 13,000 (27%) showed an effect of 50% or more. The list shows a part of the results.
Quantity kind: Percent Effect (%)

compound=Nc1cnc(-c2ccc(F)cc2Cl)cn1 quantity_kind="Percent Effect" display_unit=% reported_measurement=2.9
compound=Cc1ncsc1-c1nc(Cc2cccs2)nn1C1CCN(C)CC1 quantity_kind="Percent Effect" display_unit=% reported_measurement=-9.082
compound=Cc1ccccc1CN(CC(=O)O)C(=O)COCC1CC1 quantity_kind="Percent Effect" display_unit=% reported_measurement=-13.15
compound="Cc1ccc(CC(=O)N2CCCCC2c2nc(C)cs2)cn1 (configuration not stated)" quantity_kind="Percent Effect" display_unit=% reported_measurement=2.602
compound="Cc1nnc(CN(C)CC(=O)N2CCCC(C)CC2)n1C (configuration not stated)" quantity_kind="Percent Effect" display_unit=% reported_measurement=-6.061
compound=CCOCc1nc(CSc2ccncc2)n(C2CCN(C)CC2)n1 quantity_kind="Percent Effect" display_unit=% reported_measurement=13.12
compound="Cc1cccc(C(=O)N2CCCCC2c2nc(C)cs2)n1 (configuration not stated)" quantity_kind="Percent Effect" display_unit=% reported_measurement=80.1

----------
Listed next: entries and their corresponding Percent Effect.
- Tested on: Wolbachia pipientis
- Experiment notes: Anti-Wolbachia Cell-Based Screen
- Format: functional
- Design: scale not given: in the data most compounds retested in dose-response had high values
- Measurement parameters: 5 µM
About 13,000 (27%) of roughly 48,000 compounds showed an effect of 50% or more. This is one part of the list.
Quantity kind: Percent Effect (%)

molecule=C[C@]1(O)CN(Cc2cccc(C(=O)O)c2)CC[C@@H]1Oc1cccc(F)c1 study_system="Wolbachia pipientis" quantity_kind="Percent Effect" display_unit=% reported_measurement=113.2
molecule=CN(C(=O)CN1CCCc2cc(F)cc(F)c21)c1ccccc1 study_system="Wolbachia pipientis" quantity_kind="Percent Effect" display_unit=% reported_measurement=-11.45
molecule="CCN(CC)Cc1ccc(C(=O)NC2CCc3cc(Cl)ccc32)o1 (stereo not given)" study_system="Wolbachia pipientis" quantity_kind="Percent Effect" display_unit=% reported_measurement=1.872
molecule="CNC(=O)CN1CCOCC2(CCCN(Cc3ccoc3)C2)C1 (stereo not given)" study_system="Wolbachia pipientis" quantity_kind="Percent Effect" display_unit=% reported_measurement=84.78
molecule="Fc1ccc(CN2CCCC3(COCCN(Cc4c[nH]nn4)C3)C2)cc1.O=C(O)C(F)(F)F.O=C(O)C(F)(F)F (stereo not given)" study_system="Wolbachia pipientis" quantity_kind="Percent Effect" display_unit=% reported_measurement=-5.043
molecule=Cn1c(CS(=O)(=O)c2ccc(Cl)cc2)cc(=O)n(C)c1=O study_system="Wolbachia pipientis" quantity_kind="Percent Effect" display_unit=% reported_measurement=2.461
molecule="CCCN1CCC(CNC(=O)C2(c3ccccc3)CCC2)C1 (stereo not given)" study_system="Wolbachia pipientis" quantity_kind="Percent Effect" display_unit=% reported_measurement=94.67
molecule="O=C(c1cccc(CNCC2CNc3ccnn3C2)c1)N1CCCC1 (stereo not given)" study_system="Wolbachia pipientis" quantity_kind="Percent Effect" display_unit=% reported_measurement=2.865
molecule=Cc1cc(F)c2c(c1)CCCN2Cc1cc(=O)n(C)c(=O)n1C study_system="Wolbachia pipientis" quantity_kind="Percent Effect" display_unit=% reported_measurement=117.6
molecule=O=C(NCc1ccc(-n2cncn2)nc1)c1cc(Cl)ccn1 study_system="Wolbachia pipientis" quantity_kind="Percent Effect" display_unit=% reported_measurement=100.5
molecule="O=C(c1csc(Br)c1)N1CCCC(n2ccnc2)C1 (stereo not given)" study_system="Wolbachia pipientis" quantity_kind="Percent Effect" display_unit=% reported_measurement=-1.444
molecule=c1nc2onc(C3CC3)c2cc1-c1nnc(C2CC2)o1 study_system="Wolbachia pipientis" quantity_kind="Percent Effect" display_unit=% reported_measurement=-6.537
molecule=COc1ccccc1OC1CN(Cc2ccc(C(=O)O)cc2)C1 study_system="Wolbachia pipientis" quantity_kind="Percent Effect" display_unit=% reported_measurement=-24.62
molecule=Cc1cc(F)c2c(c1)CCCN2C(=O)c1cncc(Br)c1 study_system="Wolbachia pipientis" quantity_kind="Percent Effect" display_unit=% reported_measurement=14.39
molecule="COCc1nc2nc(O)c3c(n2n1)NC(=O)CC3c1ccc(SC)cc1 (stereo not given)" study_system="Wolbachia pipientis" quantity_kind="Percent Effect" display_unit=% reported_measurement=-7.854
molecule=C[C@]1(O)CN(Cc2ccc(C(=O)O)cc2)CC[C@@H]1Oc1cccc(F)c1 study_system="Wolbachia pipientis" quantity_kind="Percent Effect" display_unit=% reported_measurement=71.72
molecule=NC(=O)c1cccc(CNC(=O)NCCOc2ccc(F)c(F)c2)c1 study_system="Wolbachia pipientis" quantity_kind="Percent Effect" display_unit=% reported_measurement=0.2822
molecule=CCc1cc(CNC(=O)Nc2cc(F)cc(N3CCCC3)c2)on1 study_system="Wolbachia pipientis" quantity_kind="Percent Effect" display_unit=% reported_measurement=-27.71
molecule="Cn1ncc2c1NC(=O)CC2c1ccc(O)cc1 (stereo not given)" study_system="Wolbachia pipientis" quantity_kind="Percent Effect" display_unit=% reported_measurement=38.62
molecule=Cc1cc(F)c2c(c1)CCCN2Cc1nc2c(cnn2C)c(=O)[nH]1 study_system="Wolbachia pipientis" quantity_kind="Percent Effect" display_unit=% reported_measurement=-12.02
molecule="O=C(Cc1ccsc1)N1CCCC2(COCCN(CC3CC3)C2)C1.O=C(O)C(F)(F)F (stereo not given)" study_system="Wolbachia pipientis" quantity_kind="Percent Effect" display_unit=% reported_measurement=-6.273
molecule="COC1CCN(CCNC(=O)NC(C)c2cccc(Cl)c2)CC1 (stereo not given)" study_system="Wolbachia pipientis" quantity_kind="Percent Effect" display_unit=% reported_measurement=14.59
molecule="Cc1cc(C2CCCN2Cc2cc(=O)n(C)c(=O)n2C)on1 (stereo not given)" study_system="Wolbachia pipientis" quantity_kind="Percent Effect" display_unit=% reported_measurement=-9.858
molecule=CN1CCN(Cc2ccccc2Oc2cncc(C(N)=O)n2)CC1 study_system="Wolbachia pipientis" quantity_kind="Percent Effect" display_unit=% reported_measurement=7.262
molecule=Cc1ccc(CN2CCCC3(CCN(Cc4ccoc4)CC3)C2)cc1.O=C(O)C(F)(F)F.O=C(O)C(F)(F)F study_system="Wolbachia pipientis" quantity_kind="Percent Effect" display_unit=% reported_measurement=12.66
molecule="CCC1(O)CCCN(c2nc(C(C)(C)C)nc3c2cnn3C)C1 (stereo not given)" study_system="Wolbachia pipientis" quantity_kind="Percent Effect" display_unit=% reported_measurement=-1.49
molecule="c1cc(CNCC2CNc3ccnn3C2)cc(N2CCOCC2)n1 (stereo not given)" study_system="Wolbachia pipientis" quantity_kind="Percent Effect" display_unit=% reported_measurement=104.3
molecule="CNC(=O)CN1CCOCC2(C1)CN(Cc1csnn1)CCO2 (stereo not given)" study_system="Wolbachia pipientis" quantity_kind="Percent Effect" display_unit=% reported_measurement=-63.88
molecule=CCCNC(=O)C1CCN(Cc2csc(C(C)(C)C)n2)CC1 study_system="Wolbachia pipientis" quantity_kind="Percent Effect" display_unit=% reported_measurement=-3.863
molecule="c1cc(CNCC2CNc3ccnn3C2)cc(N2CCCCC2)n1 (stereo not given)" study_system="Wolbachia pipientis" quantity_kind="Percent Effect" display_unit=% reported_measurement=12.93
molecule="Fc1ccc(CN2CCOCC3(CCN(Cc4nccs4)C3)C2)cc1.O=C(O)C(F)(F)F.O=C(O)C(F)(F)F (stereo not given)" study_system="Wolbachia pipientis" quantity_kind="Percent Effect" display_unit=% reported_measurement=2.438
molecule="CNC(=O)CN1CCOCC2(CCCN(Cc3ccsc3)C2)C1.O=C(O)C(F)(F)F.O=C(O)C(F)(F)F (stereo not given)" study_system="Wolbachia pipientis" quantity_kind="Percent Effect" display_unit=% reported_measurement=99.42
molecule="CC(C(=O)NCc1ccc(-n2cncn2)nc1)n1ccnc1 (stereo not given)" study_system="Wolbachia pipientis" quantity_kind="Percent Effect" display_unit=% reported_measurement=-4.71
molecule="CNC(=O)CN1CCOCC2(CCCN(Cc3ccc(F)cc3)C2)C1.O=C(O)C(F)(F)F.O=C(O)C(F)(F)F (stereo not given)" study_system="Wolbachia pipientis" quantity_kind="Percent Effect" display_unit=% reported_measurement=113
molecule=COCCN(CCOC)Cc1c(C)nc2ccccc2c1O study_system="Wolbachia pipientis" quantity_kind="Percent Effect" display_unit=% reported_measurement=87.45
molecule="CCC(C)C(=O)NCc1ccc(-n2cncn2)nc1 (stereo not given)" study_system="Wolbachia pipientis" quantity_kind="Percent Effect" display_unit=% reported_measurement=-5.498
molecule="NS(=O)(=O)c1cc(C(=O)N2CCCC(n3ccnc3)C2)cs1 (stereo not given)" study_system="Wolbachia pipientis" quantity_kind="Percent Effect" display_unit=% reported_measurement=104.4
molecule="CC(=O)Nc1ccc(CN2CCCC(c3cc4ncccc4[nH]3)C2)cc1 (stereo not given)" study_system="Wolbachia pipientis" quantity_kind="Percent Effect" display_unit=% reported_measurement=130.8
molecule="CN(C)C(=O)c1nc(CN2CC(c3ccccc3)CC2=O)no1 (stereo not given)" study_system="Wolbachia pipientis" quantity_kind="Percent Effect" display_unit=% reported_measurement=7.307
molecule="CC(C(=O)NCc1ccc(-n2cncn2)nc1)S(C)(=O)=O (stereo not given)" study_system="Wolbachia pipientis" quantity_kind="Percent Effect" display_unit=% reported_measurement=-11.84
molecule=CN(c1ccc(-c2nc(C3CC3)no2)cn1)C1CCOCC1 study_system="Wolbachia pipientis" quantity_kind="Percent Effect" display_unit=% reported_measurement=5.539
molecule=CCn1nc2c(cc1=O)CN(c1nc3ccccc3s1)CC2 study_system="Wolbachia pipientis" quantity_kind="Percent Effect" display_unit=% reported_measurement=17.49
molecule="CC(O)CNC(=O)NCCCN1CCN(c2ncccn2)CC1 (stereo not given)" study_system="Wolbachia pipientis" quantity_kind="Percent Effect" display_unit=% reported_measurement=-2.851
molecule="CC(C)Cn1[nH]cc/c1=N\\C(=O)CN1CCOC(Cn2cccn2)C1 (stereo not given)" study_system="Wolbachia pipientis" quantity_kind="Percent Effect" display_unit=% reported_measurement=19.87
molecule=CCN(CC)c1ccc(C(=O)NCc2cccnc2-n2cncn2)cn1 study_system="Wolbachia pipientis" quantity_kind="Percent Effect" display_unit=% reported_measurement=14.25

Sourced from ChEMBL document CHEMBL3988442
